- protocol.details: CSF concentration of GLYX-13 after IV administration (LC-MS/MS)
- Format: in vivo
- details: male, Sprague Dawley, rat, cerebrospinal fluid (CSF); rats, 10 mg/kg IV; read-out: Cmax within the CSF compartment
Where a SMILES comes first, the peptide text is derived from it.
parameter.measured: Cmax (nM)

[[record]]
compound = "C[C@@H](O)[C@H](N)C(=O)N1CCC[C@H]1C(=O)N1CCC[C@H]1C(=O)N[C@H](C(N)=O)[C@@H](C)O [GLYX-13] (H-TPPT-NH2)"
recorded_measurement = 200


----------
- protocol.details: CSF concentration of GLYX-13 after IV administration (LC-MS/MS)
- Type: in vivo
- details: male, Sprague Dawley, rat, cerebrospinal fluid (CSF); rats, 3 mg/kg IV; read-out: Cmax within the CSF compartment
- Procedure: Male Sprague Dawley rats (250-300 g) received intravenous injections of GLYX-13 (3-10 mg/kg), briefly anesthetized with isoflurane, and cerebrospinal fluid (CSF) samples drawn and stored at −70° C. until analysis. CSF samples were precipitated with internal standard Pro-Thr-Pro-Ser-NH2 (SEQ ID NO: 20) in 400 μl of acetonitrile. […] The lower limit of quantitation for the assay was 26.3 nM GLYX-13.
Where a SMILES comes first, the peptide text is derived from it.
parameter.measured: Cmax (nM)

[[record]]
compound = "C[C@@H](O)[C@H](N)C(=O)N1CCC[C@H]1C(=O)N1CCC[C@H]1C(=O)N[C@H](C(N)=O)[C@@H](C)O [GLYX-13] (H-TPPT-NH2)"
recorded_measurement = 60

